# credit: patent US9309247B2

# System: EL4 (mouse, lymphoma)
# methodDescription: Cell growth inhibition assay, EL4
# Type: cell-based
# conditionsUsed: five days of incubation, XTT; read-out: IC50 EL4 (ms)
Please respond with reported IC50 for every item in the list.
Numbers only, in nM.

Below: 5 molecules and their reported IC50.
molecule | assayedSystem | IC50 / nM
FC1(F)Oc2ccc(-c3nc4c5cccnc5c5ncccc5c4[nH]3)cc2O1 [Compound 1] | EL4 (mouse, lymphoma) | 483
FC1(F)Oc2ccc(-c3nc4c5cccnc5c5ncccc5c4[nH]3)cc2O1 [Compound 3] | EL4 (mouse, lymphoma) | 451
FC1(F)Oc2ccc(-c3nc4c5cccnc5c5ncccc5c4[nH]3)cc2O1 [Compound 5] | EL4 (mouse, lymphoma) | 518
FC1(F)Oc2ccc(-c3nc4c5cccnc5c5ncccc5c4[nH]3)cc2O1 [Compound 8] | EL4 (mouse, lymphoma) | 199
FC1(F)Oc2ccc(-c3nc4c5cccnc5c5ncccc5c4[nH]3)cc2O1 [Compound 6] | EL4 (mouse, lymphoma) | 57

Could you tell me IC50 for each of these molecules? They are listed below.
1. FC1(F)Oc2ccc(-c3nc4c5cccnc5c5ncccc5c4[nH]3)cc2O1 [Compound 7]
2. FC1(F)Oc2ccc(-c3nc4c5cccnc5c5ncccc5c4[nH]3)cc2O1 [Compound 4]

Solution:
1. 470
2. 486

Exercise: Respond only with IC50 recorded for FC1(F)Oc2ccc(-c3nc4c5cccnc5c5ncccc5c4[nH]3)cc2O1 [Compound 2]
Solution: 384

* * *

# Test system: human non-small cell lung cancer cells H460
# methodDescription: XTT cell proliferation assay, H460
# Assay type: cell-based
# conditionsUsed: 5 days incubation, read-out: Antiproliferative activity, NSCLC H460
Please respond with reported pIC50 for every item in the list.
Numbers only, as −log10 of the molar value.

Below: 4 compounds and their reported pIC50.
compound | assayedSystem | pIC50
FC1(F)Oc2ccc(-c3nc4c5cccnc5c5ncccc5c4[nH]3)cc2O1 [Compound 1] | human non-small cell lung cancer cells H460 | 6.80
FC1(F)Oc2ccc(-c3nc4c5cccnc5c5ncccc5c4[nH]3)cc2O1 [Compound 5] | human non-small cell lung cancer cells H460 | 6.85
FC1(F)Oc2ccc(-c3nc4c5cccnc5c5ncccc5c4[nH]3)cc2O1 [Compound 7] | human non-small cell lung cancer cells H460 | 6.49
FC1(F)Oc2ccc(-c3nc4c5cccnc5c5ncccc5c4[nH]3)cc2O1 [Compound 6] | human non-small cell lung cancer cells H460 | 6.80

Exercise: Respond only with pIC50 recorded for FC1(F)Oc2ccc(-c3nc4c5cccnc5c5ncccc5c4[nH]3)cc2O1 [Compound 4]
Solution: 6.80

* * *

# Test system: Human Burkitt's lymphoma Raji cells
# methodDescription: Cell growth inhibition assay, Raji
# Format: cell-based
# conditionsUsed: five days of incubation, XTT; read-out: IC50 Raji (hs)
Please respond with reported IC50 for every item in the list.
One number for each entry, in nM.

Could you tell me IC50 for each of these molecules? They are listed below.
1. FC1(F)Oc2ccc(-c3nc4c5cccnc5c5ncccc5c4[nH]3)cc2O1 [Compound 1]
2. FC1(F)Oc2ccc(-c3nc4c5cccnc5c5ncccc5c4[nH]3)cc2O1 [Compound 5]
3. FC1(F)Oc2ccc(-c3nc4c5cccnc5c5ncccc5c4[nH]3)cc2O1 [Compound 7]
4. FC1(F)Oc2ccc(-c3nc4c5cccnc5c5ncccc5c4[nH]3)cc2O1 [Compound 4]

Solution:
1. 153
2. 109
3. 112
4. 54

Could you tell me IC50 for each of these molecules? They are listed below.
1. FC1(F)Oc2ccc(-c3nc4c5cccnc5c5ncccc5c4[nH]3)cc2O1 [Compound 8]
2. FC1(F)Oc2ccc(-c3nc4c5cccnc5c5ncccc5c4[nH]3)cc2O1 [Compound 2]
3. FC1(F)Oc2ccc(-c3nc4c5cccnc5c5ncccc5c4[nH]3)cc2O1 [Compound 3]
4. FC1(F)Oc2ccc(-c3nc4c5cccnc5c5ncccc5c4[nH]3)cc2O1 [Compound 6]

Solution:
1: 25; 2: 166; 3: 197; 4: 32

* * *

# System: human renal cancer cells ACHN
# methodDescription: XTT cell proliferation assay, ACHN
# Format: cell-based
# conditionsUsed: 5 days incubation, read-out: Antiproliferative activity, Kidney ACHN
pIC50: −log10 of the molar value.
Entry flag: satisfied if pIC50 reaches 7; not satisfied if it does not.

Some entries whose results are on file:
molecule | category
FC1(F)Oc2ccc(-c3nc4c5cccnc5c5ncccc5c4[nH]3)cc2O1 [Compound 7] | satisfied
FC1(F)Oc2ccc(-c3nc4c5cccnc5c5ncccc5c4[nH]3)cc2O1 [Compound 2] | not satisfied
FC1(F)Oc2ccc(-c3nc4c5cccnc5c5ncccc5c4[nH]3)cc2O1 [Compound 6] | satisfied
FC1(F)Oc2ccc(-c3nc4c5cccnc5c5ncccc5c4[nH]3)cc2O1 [Compound 1] | not satisfied
FC1(F)Oc2ccc(-c3nc4c5cccnc5c5ncccc5c4[nH]3)cc2O1 [Compound 8] | not satisfied

Kindly review the next molecule as well.
Exercise: Determine whether this molecule has pIC50 no lower than 7: FC1(F)Oc2ccc(-c3nc4c5cccnc5c5ncccc5c4[nH]3)cc2O1 [Compound 3]
Solution: not satisfied

* * *

Please respond with reported pIC50 for every item in the list.
# System: human colon carcinoma cells KM12
# methodDescription: XTT cell proliferation assay, KM12
# Assay type: cell-based
# conditionsUsed: 5 days incubation, read-out: Antiproliferative activity, Colon KM12
Answers are plain numbers, as −log10 of the molar value.

molecule | pIC50
FC1(F)Oc2ccc(-c3nc4c5cccnc5c5ncccc5c4[nH]3)cc2O1 [Compound 3] | 6.64
FC1(F)Oc2ccc(-c3nc4c5cccnc5c5ncccc5c4[nH]3)cc2O1 [Compound 6] | 6.74
FC1(F)Oc2ccc(-c3nc4c5cccnc5c5ncccc5c4[nH]3)cc2O1 [Compound 4] | 6.74

Could you tell me pIC50 for each of these molecules? They are listed below.
1. FC1(F)Oc2ccc(-c3nc4c5cccnc5c5ncccc5c4[nH]3)cc2O1 [Compound 7]
2. FC1(F)Oc2ccc(-c3nc4c5cccnc5c5ncccc5c4[nH]3)cc2O1 [Compound 5]

Solution:
6.40
6.55

Could you tell me pIC50 for each of these molecules? They are listed below.
1. FC1(F)Oc2ccc(-c3nc4c5cccnc5c5ncccc5c4[nH]3)cc2O1 [Compound 2]
2. FC1(F)Oc2ccc(-c3nc4c5cccnc5c5ncccc5c4[nH]3)cc2O1 [Compound 1]
3. FC1(F)Oc2ccc(-c3nc4c5cccnc5c5ncccc5c4[nH]3)cc2O1 [Compound 8]

Solution:
1. 6.66
2. 6.48
3. 6.23

* * *

# System: non-small cell lung cancer cells HOP-92
# methodDescription: XTT cell proliferation assay, HOP-92
# Format: cell-based, human
# conditionsUsed: 5 days incubation, read-out: Antiproliferative activity, NSCLC HOP-92
Please respond with reported pIC50 for every item in the list.
Answers are plain numbers, as −log10 of the molar value.

compound | assayedSystem | pIC50
FC1(F)Oc2ccc(-c3nc4c5cccnc5c5ncccc5c4[nH]3)cc2O1 [Compound 1] | non-small cell lung cancer cells HOP-92 | 6.80
FC1(F)Oc2ccc(-c3nc4c5cccnc5c5ncccc5c4[nH]3)cc2O1 [Compound 7] | non-small cell lung cancer cells HOP-92 | 6.77
FC1(F)Oc2ccc(-c3nc4c5cccnc5c5ncccc5c4[nH]3)cc2O1 [Compound 5] | non-small cell lung cancer cells HOP-92 | 6.77

Could you tell me pIC50 for each of these compounds? They are listed below.
1. FC1(F)Oc2ccc(-c3nc4c5cccnc5c5ncccc5c4[nH]3)cc2O1 [Compound 4]
2. FC1(F)Oc2ccc(-c3nc4c5cccnc5c5ncccc5c4[nH]3)cc2O1 [Compound 8]
3. FC1(F)Oc2ccc(-c3nc4c5cccnc5c5ncccc5c4[nH]3)cc2O1 [Compound 3]
4. FC1(F)Oc2ccc(-c3nc4c5cccnc5c5ncccc5c4[nH]3)cc2O1 [Compound 2]
5. FC1(F)Oc2ccc(-c3nc4c5cccnc5c5ncccc5c4[nH]3)cc2O1 [Compound 6]

Solution:
1: 6.77; 2: 6.80; 3: 6.77; 4: 6.77; 5: 7.52
